// reported koff for each item listed
Target: T1, Recombinant human B7-H3 (human, UniProt Q5ZPR3 29-466, limits assumed)
T1 construct: also called CD276; B7RP-2
T1 sequence: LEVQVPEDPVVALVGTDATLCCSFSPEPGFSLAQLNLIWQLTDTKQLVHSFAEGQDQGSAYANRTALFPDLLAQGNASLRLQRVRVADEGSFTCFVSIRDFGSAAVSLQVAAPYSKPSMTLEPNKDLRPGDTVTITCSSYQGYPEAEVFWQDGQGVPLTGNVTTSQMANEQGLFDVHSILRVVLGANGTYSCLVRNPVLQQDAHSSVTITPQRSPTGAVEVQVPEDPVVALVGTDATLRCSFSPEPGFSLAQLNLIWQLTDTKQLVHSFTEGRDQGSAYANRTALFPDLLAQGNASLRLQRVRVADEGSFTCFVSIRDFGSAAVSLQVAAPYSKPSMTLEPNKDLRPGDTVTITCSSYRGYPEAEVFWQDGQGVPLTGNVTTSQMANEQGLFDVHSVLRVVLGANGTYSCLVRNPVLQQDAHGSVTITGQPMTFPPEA
Assay: SPR (such as Biacore T200), against human B7-H3
Respond with the bare value in s⁻¹.

Example cases with answers are listed next.
SCT-Da333 (antibody, V domains shown) VH: QVQLQQSGPELVRPGVSVKISCKGSGYTFTDYAVHWVKQSHAKSLEWIGVINTYSGNTYYNLHFKGKATMTVDKSSSTAYMELARLTSEDSAIYYCARRRGSHRDAYFDYWGQGTTLTVSS VL: DIVMTQSHKFMSTSVGDRVSITCRASQDVSTAVAWYQQKPGQSPKLLIYSASYRYTGVPDRFTVSGSGTDFTFTISSVQAEDLAVYYCQQHYSTPWTFGGGTKLEIK	0.0512
SCT-Da250 (antibody, V domains shown) VH: QGQMQQSGAELVKPGASVRLSCKTSGFTFSSFYISWLKQKPGQSLEWIAWIYAGPGYTSYNQKFTGKAQLTVDTSSSTAYMQFSSLTTEDSAIYYCARHVGRQRGYFDVWGAGTTVTVSS VL: DIVMTQSHKFMSTSVGDRVSITCKASQDVSTAVAWYQQKPGQSPKLLIYSASYRYTGVPDHFTVSGSGTDFTFTISSVQAEDLAVYYCQQHYSTPWTFGGGTKLEIK	0.0011
SCT-Da182 (antibody, V domains shown) VH: EVQLQQSGPELVKPGASMKISCKVSGFSFTGYTMNWVKQSHGKNLEWIGLINTYNGGTFYNQKFKAKATLTVDKSSSTAHMELLSLTSEDSAVYYCARSPGRYSMDYWGQGTSVTVSS VL: DIVLTQSPASLAVSLGQRATISCKASQSVDYNGYSYLNWYQQKPGQPPKLLIYPASNLESGIPARFSGSGSGTDFTLNIHPVEEEDAATYYCQQSKEDPYTFGGGTKLEIK	0.00101

Please find the next binder below.
Value lookup for koff; key = SCT-Da148 (antibody, V domains shown) VH: EVQLQQSGAELVKPGASVKLSCTASGVNIKDTYIHWVKQRPEQGLEWIGRIDPANGNRKYDPKFQGKATITADSSSNTAYLQLSSLTSEDTAVYYCARDGYYAPGYWGQGTTLTVSS VL: DIVMTQSQKFMSTSVGDRVSVTCKASQNVGTDVAWYQQKPGQSPKLLIYSASYRFSGVPDRFTGSGSGTDFSLAISNVQSEDLAEYFCQQYNSYPYTFGGGAKLEIK 0.00234
